Entry source: patent US20240400677A1

Molecular target: T1, bivalent human SIRPγ protein with mouse Fc (human, UniProt Q9P1W8 29-360)
T1 construct: also called Human SIRPγ-mFc
T1 sequence (Q9P1W8 29-360 limits assumed): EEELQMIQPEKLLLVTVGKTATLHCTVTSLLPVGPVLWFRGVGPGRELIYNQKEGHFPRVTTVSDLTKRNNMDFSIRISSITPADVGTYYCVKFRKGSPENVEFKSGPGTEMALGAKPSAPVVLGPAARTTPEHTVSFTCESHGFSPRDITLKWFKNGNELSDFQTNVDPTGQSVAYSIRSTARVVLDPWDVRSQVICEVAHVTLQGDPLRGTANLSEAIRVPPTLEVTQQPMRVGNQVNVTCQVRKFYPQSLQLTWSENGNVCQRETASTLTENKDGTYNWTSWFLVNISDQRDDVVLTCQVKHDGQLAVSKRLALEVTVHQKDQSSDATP
Assay: BLI Octet, antibody on AHC, global 1:2 model
METRIC_NAME: pKd
# pKd: negative log10 of molar concentration; output just the value

Prompt: # get_value(readout='pKd', item= Antibody 88 (antibody, V domains shown) VH: QVQLVQSGAEVKKPGASVKVSCKASGYTFTSHDINWVRQAPGQGLEWMGWMNANNGNAGYAQKFQGRVTMTRDTSTSTVYMELSSLRSEDTAVYYCAKDLSPSSSWSTYYYYYGMDVWGQGTMVTVSS VL: DIQMTQSPSSLSASVGDRVTITCRASQSISNLLAWYQQKPGKAPKLLIYAASSLQSGVPSRFSGSGSGTDFTLTISSLQPEDFATYYCQQSYSTPYTFGQGTKLEIK )
Response: 7.30

Prompt: # get_value(readout='pKd', item= Antibody 86 (antibody, V domains shown) VH: EVQLLESGGGLVQPGGSLRLSCAASGFTLGSYWMHWVRQAPGKGLEWVSLISWDGGSTYYADSVKGRFTISRDNSKNTLYLQMNSLRAEDTAVYYCAKGPWVGYSGYDLNYYYYGMDVWGQGTTVTVSS VL: DIQMTQSPSSLSASVGDRVTITCRASQDIRRALAWYQQKPGKAPKLLIYAASSLQSGVPSRFSGSGSGTDFTLTISSLQPEDFATYYCLQHNSYPPTFGQGTKLEIK )
Response: 8.41

Prompt: # get_value(readout='pKd', item= Antibody 97 (antibody, V domains shown) VH: QVQLVQSGAEVKKPGASVKVSCKASGHTFNNNYIHWVRQAPGQGLEWMGIINPSGGSTSYAQKFQGRVTMTRDTSTSTVYMELSSLRSEDTAVYYCARQIQDYGYYYYGMDVWGQGTTVTVSS VL: EIVMTQSPATLSVSPGERATLSCRASQSVSKYLAWYQQKPGQAPRLLIYAISARAAGIPARFSGSGSGTEFTLTISSLQSEDFAVYYCQQYYSSPPTFGQGTKVEIK )
Response: 7.32

Prompt: # get_value(readout='pKd', item= Antibody 96 (antibody, V domains shown) VH: QVQLVQSGAEVKKPGASVKVSCKASGYTFTRYDINWVRQAPGQGLEWMGWMNPNSGNTGYAQKLQGRVTMTRDTSTSTVYMELSSLRSEDTAVYYCARERVGYCSSTSCLHPLDYWGQGTLVTVSS VL: DIQMTQSPSSLSASVGDRVTITCRASQGIRNDLGWYQQKPGKAPKLLIYSASNLQSGVPSRFSGSGSGTDFTLTISSLQPEDFATYYCQQSYDVPLTFGGGTKVEIK )
Response: 7.67
